Measured on: hA2B receptors (Homo sapiens, UniProt P29275)
Construct: host or cells: HEK-293
Sequence (P29275 1-332): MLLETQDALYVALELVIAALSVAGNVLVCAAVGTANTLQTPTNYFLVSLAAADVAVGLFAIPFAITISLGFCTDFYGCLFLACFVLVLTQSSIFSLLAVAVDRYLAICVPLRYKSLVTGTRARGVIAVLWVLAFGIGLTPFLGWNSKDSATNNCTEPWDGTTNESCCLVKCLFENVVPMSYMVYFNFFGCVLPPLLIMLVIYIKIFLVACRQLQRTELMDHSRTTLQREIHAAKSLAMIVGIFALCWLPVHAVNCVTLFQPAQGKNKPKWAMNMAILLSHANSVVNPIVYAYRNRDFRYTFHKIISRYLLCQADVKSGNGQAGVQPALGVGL
Experiment description: Adenosine receptor binding: binding affinities at hA2B receptors ([3H]-ZM241385 displacement)
Condition context: Table 2; ratio of Ki values
Assay endpoint: Binding Selectivity A2b/A2a
Answers are plain numbers.

For orientation, consider the following solved cases.
>>> numeric_result("COCc1cccc(Cn2nnc3c(-c4ccc(C)o4)nc(N)nc32)n1 [WO 02/055083 Example 183, reference compound]")
183
>>> numeric_result("CC(C)COCc1cccc(Cn2nnc3c(-c4ccco4)nc(N)nc32)n1 [WO 02/055083 Example 217, reference compound]")
131
>>> numeric_result("Cl.Nc1nc(-c2ccco2)c2nnn(Cc3cccc(CO)n3)c2n1 [WO 02/055083 Example 213, reference compound]")
100

Count: 2. Required value per item: Binding Selectivity A2b/A2a.
1. Nc1cccc(Cn2nnc3c(-c4ccccc4)nc(N)nc32)c1 [WO 02/055083 Example 151, reference compound]
2. CC(C)OCc1cccc(Cn2nnc3c(-c4ccco4)nc(N)nc32)n1 [WO 02/055083 Example 247, reference compound]

[52, 151]

====

Provide the reported pKi of each item.
Measured on: human adenosine A1 receptors (Homo sapiens, UniProt P30542)
Construct: expressed in transfected cells; host or cells: CHO-K1
Sequence (P30542 whole entry): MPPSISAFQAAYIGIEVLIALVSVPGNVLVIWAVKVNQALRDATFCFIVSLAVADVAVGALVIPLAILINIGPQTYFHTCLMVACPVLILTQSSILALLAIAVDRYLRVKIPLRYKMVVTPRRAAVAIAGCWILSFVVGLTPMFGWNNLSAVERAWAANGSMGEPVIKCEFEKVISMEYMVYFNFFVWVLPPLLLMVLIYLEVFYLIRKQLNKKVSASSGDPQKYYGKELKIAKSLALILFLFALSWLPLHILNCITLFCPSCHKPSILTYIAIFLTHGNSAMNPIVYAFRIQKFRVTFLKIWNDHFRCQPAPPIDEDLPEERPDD
Experiment description: Adenosine receptor binding: binding affinities at hA1 receptors ([3H]DPCPX displacement)
Condition context: Table 2; comparative compounds of WO 02/055083; read-out: Binding Affinity hA1-Ki
Experimental: Adenosine Receptor Binding: Binding Affinities at hA1 Receptors The resultant homogenate was kept for immediate use in the binding. Binding assays were performed in a total volume of 250 μL, containing [^3H]-DPCPX (3.0 nM), membranes and additional drugs. Total binding was determined using drug dilution buffer (50 mM Tris-HCl pH:7.5, 10 mM MgCl2, 5% DMSO). Non-specific binding was determined using 300 μM N6-cyclohexyladenosine (CHA). […]
Answers are plain numbers, as −log10 of the molar value.

For orientation, consider the following solved cases.
>>> numeric_result("CC(C)OCc1cccc(Cn2nnc3c(-c4ccco4)nc(N)nc32)n1 [WO 02/055083 Example 247, reference compound]")
6.56
>>> numeric_result("Cl.Nc1nc(-c2ccco2)c2nnn(Cc3cccc(CO)n3)c2n1 [WO 02/055083 Example 213, hydrochloride, reference compound]")
6.23
>>> numeric_result("CC(C)COCc1cccc(Cn2nnc3c(-c4ccco4)nc(N)nc32)n1 [WO 02/055083 Example 217, reference compound]")
6.82
>>> numeric_result("COCc1cccc(Cn2nnc3c(-c4ccc(C)o4)nc(N)nc32)n1 [WO 02/055083 Example 183, reference compound]")
7.08

Now take the following compound into account.
pKi lookup needed for Nc1cccc(Cn2nnc3c(-c4ccccc4)nc(N)nc32)c1 [WO 02/055083 Example 151, reference compound] , thanks.
6.99
